# testSystem: BACE1 enzyme (Homo sapiens)
# Construct: endogenous in cells; washed 48,000 x g membrane pellet / cell homogenate
# Sequence (P56817 46-501): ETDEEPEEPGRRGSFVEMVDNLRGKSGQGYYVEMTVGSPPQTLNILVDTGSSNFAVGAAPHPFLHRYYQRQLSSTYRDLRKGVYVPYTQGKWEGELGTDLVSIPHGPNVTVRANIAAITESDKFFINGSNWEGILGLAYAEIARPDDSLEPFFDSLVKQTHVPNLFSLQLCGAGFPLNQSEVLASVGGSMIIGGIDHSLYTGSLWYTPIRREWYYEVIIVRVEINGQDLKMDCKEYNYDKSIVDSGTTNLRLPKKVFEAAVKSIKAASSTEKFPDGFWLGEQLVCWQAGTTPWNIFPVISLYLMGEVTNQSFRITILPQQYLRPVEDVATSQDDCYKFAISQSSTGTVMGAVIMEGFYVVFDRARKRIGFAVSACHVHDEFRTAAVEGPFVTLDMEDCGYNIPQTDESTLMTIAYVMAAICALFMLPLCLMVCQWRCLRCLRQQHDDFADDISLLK
# assayText: Radioligand displacement assay with a radiolabeled BACE inhibitor
# statedConditions: HEK293-9B.A1 cell homogenate overexpressing BACE1, 1 nM radioligand, pH 5.0, 1.5 hr at 25° C.; read-out: Activity Rating (activity based on IC50 values)
pIC50: −log10 of the molar value.
Listed here are molecules together with their documented pIC50.

Example entries begin here.
>>> df
                                   molecule     val
0  CCCC[C@H](C)C(=O)N(C)[C@H]1CC=CCO[C@@H]2C[C@H](NC[C@@H](O)[C@H](Cc3ccccc3)NC1=O)c1cc(C)cc(C)c12 [Example 100]  > 8.00
1  CN([C@H]1CCC=CCO[C@@H]2C[C@H](NC[C@@H](O)[C@H](Cc3ccccc3)NC1=O)c1cc(Br)ccc12)S(=O)(=O)CCC(F)(F)F [Example 61]  > 8.00

From here, focus on the item given below.
pIC50 in this record for CCCCCS(=O)(=O)N(C)[C@H]1CC=CCCCc2ccc(C(F)(F)F)cc2CNC[C@@H](O)[C@H](Cc2cc(F)cc(F)c2)NC1=O [Example 40] : 6.30 to 8.00
